Values were extracted from the supplement of paper PMC10567573.

Provide the recorded protein stability index for the entries that follow.
B1: SFRS1 (parent)
chain: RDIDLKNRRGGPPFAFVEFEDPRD

Variants of: B1
test: protein stability index of a GFP-peptide fusion (GPS, HEK-293T) (PSI 1-6); higher = more stable;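 further: lentivirally expressed fusions sorted by FACS into six bins by GFP to DsRed ratio, PSI derived from sequencing read proportions per bin multiplied by bin number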
measurementSetup: c terminus: a fixed tail appended
# output: bare number, no unit

Give the value of protein stability index reported for the following: `D21P`
3.45

Indicate the recorded protein stability index value for this variant: `R1Q`
3.96

Write down protein stability index measured for item `R9C`
3.92

Dear colleague, please send me the reported protein stability index for `G11Q` when you can.
3.47

Entry `F14N` needs its protein stability index filled in; supply it.
4.58

Provide measured protein stability index value, entry: `F19S`
3.19

Look up and state reported protein stability index for `D4M`
3.4

Note protein stability index for the variant shown: `A15Q`
4.79

Read off the recorded protein stability index for `P22C`
3.8

Look up and report measured protein stability index for this entry: `P22E`
4.43

Please list protein stability index recorded for the variant `A15P`
4.31

State, in one line, measured protein stability index of `F14T`
4.9

Please report protein stability index for the following variant: `D21C`
2.73

Return the recorded protein stability index value; entry: `P13K`
4.02

Given `D2T` , respond with its protein stability index.
3.19

Look up protein stability index of `F14M` and report it.
4.26

Could you please provide reported protein stability index for `R8P` ? Thanks!
4.19

Retrieve protein stability index measured for `R8W` and print it.
3.71

Query protein stability index for `E20P`
3.66

Supply protein stability index value. Item: `D4S`
3.83

Give a short answer stating reported protein stability index for `R1P` .
3.81

Recall and state the measured protein stability index for `G11F` .
3
